log10(Ki) values by entry
ASSAY TARGET: UniProt:P14416
ASSAY: Antagonist activity at human dopamine D2L receptor expressed in CHO cells assessed as inhibition of quinelorane-induced [35S]GTPgammaS binding
Heads up: the numbers are on a log10 scale; they represent Ki in nM.

Record excerpt, results attached:
INSERT INTO results (compound, quantitative_readout) VALUES
  ('Cc1ncoc1-c1nnc(SCCCN2CCC3(CCc4ccc(Br)cc43)C2)n1C (centres undefined)', 1.60),
  ('Cc1nc(C)c(-c2nnc(SCCCN3CCC4(CCc5cc(Cl)ccc54)C3)n2C)s1 (centres undefined)', 2.60),
  ('Cc1ncoc1-c1nnc(SCCCN2CCC3(CCCc4ccc(Br)cc43)C2)n1C (centres undefined)', 2.50);

Exercise: Fill in: log10(Ki) of `Cc1ncoc1-c1nnc(SCCCN2[C@@H]3CC[C@H]2C[C@@H](c2ccc(C(F)(F)F)cc2)C3)n1C` is ___
Key: 2.60

Exercise: Fill in: log10(Ki) of Cc1ncoc1-c1nnc(SCCCN[C@@H]2CC[C@]3(c4ccc(C(F)(F)F)cc4)CC23)n1C (stereo in doubt; 24) is ___
Key: 2.70

Exercise: Fill in: log10(Ki) of COc1cccc2c1CCCC21CCN(CCCSc2nnc(-c3ocnc3C)n2C)C1 (centres undefined) is ___
Key: 2.60

Exercise: Fill in: log10(Ki) of Cc1ncoc1-c1nnc(SCCCN2CCC3(CCc4cc(F)ccc43)C2)n1C (centres undefined) is ___
Key: 2.00

Exercise: Fill in: log10(Ki) of Cc1ncoc1-c1nnc(SCCCN2CCC3(CCc4cc(Br)ccc43)C2)n1C (centres undefined) is ___
Key: 2.10

----------
ASSAY TARGET: D(3) dopamine receptor (Homo sapiens)
Sequence (P35462 whole entry): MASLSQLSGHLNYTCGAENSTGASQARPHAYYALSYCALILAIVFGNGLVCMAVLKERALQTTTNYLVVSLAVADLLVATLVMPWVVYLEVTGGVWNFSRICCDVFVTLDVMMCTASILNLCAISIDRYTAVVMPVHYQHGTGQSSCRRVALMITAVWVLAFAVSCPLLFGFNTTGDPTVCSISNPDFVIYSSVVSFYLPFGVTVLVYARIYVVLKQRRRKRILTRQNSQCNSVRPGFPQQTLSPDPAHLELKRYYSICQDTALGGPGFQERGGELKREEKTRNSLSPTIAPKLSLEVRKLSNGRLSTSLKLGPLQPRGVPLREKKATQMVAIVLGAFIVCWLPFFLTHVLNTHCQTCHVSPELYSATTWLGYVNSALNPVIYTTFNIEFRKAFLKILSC
ASSAY: Antagonist activity at human dopamine D3 expressed in CHO cells assessed as inhibition of quinelorane-induced [35S]GTPgammaS binding
pKi values by entry
Quick note: pKi means taking -log10 of the concentration in moles per liter.

INSERT INTO results (compound, quantitative_readout) VALUES
  ('Cc1ncoc1-c1nnc(SCCCN2CCC3(CCCc4cc(Br)ccc43)C2)n1C (centres undefined)', 8.10),
  ('Cc1ncoc1-c1nnc(SCCCN2[C@@H]3CC[C@H]2C[C@@H](c2ccc(C(F)(F)F)cc2)C3)n1C', 8.00);

Exercise: Fill in: pKi of Cc1ncoc1-c1nnc(SCCCN2CCC3(c4cccc(C(F)(F)F)c4)CC3C2)n1C (centres undefined) is ___
Key: 8.20

Exercise: Fill in: pKi of Cc1ncoc1-c1nnc(SCCCN2CCC3CC3(c3ccc(C(F)(F)F)cc3)C2)n1C (centres undefined) is ___
Key: 8.10

----------
ASSAY TARGET: D(2) dopamine receptor (Homo sapiens, UniProt P14416)
Sequence (P14416 whole entry): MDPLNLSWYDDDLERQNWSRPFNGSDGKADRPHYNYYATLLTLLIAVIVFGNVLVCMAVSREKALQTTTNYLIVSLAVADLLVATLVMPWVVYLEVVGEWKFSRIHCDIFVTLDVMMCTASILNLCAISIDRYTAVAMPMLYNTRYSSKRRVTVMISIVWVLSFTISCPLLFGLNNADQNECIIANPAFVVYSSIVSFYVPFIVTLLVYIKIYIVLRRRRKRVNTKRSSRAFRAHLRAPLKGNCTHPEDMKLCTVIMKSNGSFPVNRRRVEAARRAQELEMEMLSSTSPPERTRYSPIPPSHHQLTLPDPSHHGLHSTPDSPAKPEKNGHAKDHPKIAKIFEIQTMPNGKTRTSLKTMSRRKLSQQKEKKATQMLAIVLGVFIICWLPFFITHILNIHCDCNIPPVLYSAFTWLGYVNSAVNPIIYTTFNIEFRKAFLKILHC
ASSAY: Antagonist activity at human dopamine D2L receptor expressed in CHO cells assessed as inhibition of quinelorane-induced [35S]GTPgammaS binding
Ki values by entry

Record excerpt, results attached:
INSERT INTO assay_data (compound, result) VALUES
  ('Cc1ncoc1-c1nnc(SCCCN[C@@H]2CC3C[C@]3(c3ccc(C(F)(F)F)cc3F)C2)n1C (stereo not given in full)', '> 3.16 µM'),
  ('Cc1ncoc1-c1nnc(SCCCN2CCC3(CCOc4ccccc43)C2)n1C (stereo not given)', '> 3.16 µM'),
  ('Cc1ncoc1-c1nnc(SCCCNC2CC[C@]3(c4ccc(C(F)(F)F)cc4)CC23)n1C (single isomer, unassigned)', '> 3.16 µM'),
  ('Cc1nc(C)c(-c2nnc(SCCCN3CCC4(CCc5ccc(F)cc54)C3)n2C)s1 (stereo not given)', '0.398 µM');

With those in mind, consider the next compound.
Exercise: Fill in: Ki of `Cc1ncoc1-c1nnc(SCCCN2[C@@H]3CC[C@H]2C[C@@H](c2ccc(C(F)(F)F)cc2F)C3)n1C` is ___
Key: > 3.16 µM

Hello, the source for this data is ChEMBL document CHEMBL1255216, in case you need it.
